- Study target: cAMP-dependent protein kinase catalytic subunit alpha (Homo sapiens, UniProt P17612); also: in the data inactive means no Kd found up to 30 µM
Active and inactive are the calls of the source.
Can you answer with just one of these options? active, inactive

Please review the entries below; each comes with its answer.
[
  {
    "Molecule": "Cn1ncc(Cl)c1-c1cc(C(=O)N[C@H](CN)Cc2ccc(F)c(F)c2)oc1Cl [UPROSERTIB]",
    "Study target": "cAMP-dependent protein kinase catalytic subunit alpha (Homo sapiens, UniProt P17612)",
    "Label value": "active"
  },
  {
    "Molecule": "CCS(=O)(=O)c1cccc(-c2cc(C(=O)NC3CCN(C)CC3)c(C)c3[nH]c4ncc(C)cc4c23)c1 [TAK-901]",
    "Study target": "cAMP-dependent protein kinase catalytic subunit alpha (Homo sapiens, UniProt P17612)",
    "Label value": "inactive"
  },
  {
    "Molecule": "CNC(=O)c1cccc2cc(Oc3ccnc4cc(OCC5(N)CC5)c(OC)cc34)ccc12 [LUCITANIB]",
    "Study target": "cAMP-dependent protein kinase catalytic subunit alpha (Homo sapiens, UniProt P17612)",
    "Label value": "inactive"
  }
]

Assay outcome for Nc1ncnc2c1c(-c1cccc(OCc3ccccc3)c1)cn2[C@H]1C[C@@H](CN2CCC2)C1 [AEW-541] : what was it?
inactive
